# Tested on: TK+ VZV strain
# Test details: microbe, parasite or virus in culture
# Assay type: cell-based, varicella-zoster virus (VZV) strain Oka
# Assay setup: Human alphaherpesvirus 3, HEL, read-out: Antiviral Activity EC50, TK+ VZV Strain, HEL cell cultures; concentration reducing virus plaque formation by 50%
Quantity: pEC50
Reminder that pEC50 is minus the log10 of a molar concentration.

Example entries begin here.
CCOP(=O)(COCCn1cc(CN2C(=O)c3cccc4cc([N+](=O)[O-])cc(c34)C2=O)nn1)OCC [Compound 16g] = 4.30
CCOP(=O)(OCC)C(O)Cn1cc(CN2C(=O)c3cccc4cc([N+](=O)[O-])cc(c34)C2=O)nn1 (stereo not shown) [Compound 16e] = 4.08
O=c1[nH]c(=O)n([C@H]2C[C@H](O)[C@@H](CO)O2)cc1/C=C/Br [Brivudin, reference compound] = 7.89
CCOP(=O)(CCCn1cc(CN2C(=O)c3cccc4cc([N+](=O)[O-])cc(c34)C2=O)nn1)OCC [Compound 16c] = 4.48
CCOP(=O)(CCCCn1cc(CN2C(=O)c3cccc4c(Br)ccc(c34)C2=O)nn1)OCC [Compound 15d] = 4.39
CCOP(=O)(CCn1cc(CN2C(=O)c3cccc4c(Br)ccc(c34)C2=O)nn1)OCC [Compound 15b] = 4.47

Ask: Enter recorded pEC50 with TK+ VZV strain for CCOP(=O)(Cn1cc(CN2C(=O)c3cccc4cc([N+](=O)[O-])cc(c34)C2=O)nn1)OCC [Compound 16a] here.
Reply: 4.41

Ask: Enter recorded pEC50 with TK+ VZV strain for CCOP(=O)(OCC)C(O)Cn1cc(CN2C(=O)c3cccc4cccc(c34)C2=O)nn1 (stereo not shown) [Compound 14e] here.
Reply: 4.16

Ask: Enter recorded pEC50 with TK+ VZV strain for CN(C)CCN1C(=O)c2cccc3cc(N)cc(c23)C1=O [Amonafide, reference compound] here.
Reply: 5.27

Ask: Enter recorded pEC50 with TK+ VZV strain for C#CCN1C(=O)c2cccc3cc([N+](=O)[O-])cc(c23)C1=O here.
Reply: 4.31
